Origin of values: ChEMBL document CHEMBL1122963

Collected inhibition values appear next to each entry.
# TESTED SYSTEM: Sodium channel alpha subunits; brain (Types I, II, III) (Homo sapiens, UniProt P35498+Q99250+Q9NY46)
# Sequence (Q99250 whole entry, looked up, other chains not shown): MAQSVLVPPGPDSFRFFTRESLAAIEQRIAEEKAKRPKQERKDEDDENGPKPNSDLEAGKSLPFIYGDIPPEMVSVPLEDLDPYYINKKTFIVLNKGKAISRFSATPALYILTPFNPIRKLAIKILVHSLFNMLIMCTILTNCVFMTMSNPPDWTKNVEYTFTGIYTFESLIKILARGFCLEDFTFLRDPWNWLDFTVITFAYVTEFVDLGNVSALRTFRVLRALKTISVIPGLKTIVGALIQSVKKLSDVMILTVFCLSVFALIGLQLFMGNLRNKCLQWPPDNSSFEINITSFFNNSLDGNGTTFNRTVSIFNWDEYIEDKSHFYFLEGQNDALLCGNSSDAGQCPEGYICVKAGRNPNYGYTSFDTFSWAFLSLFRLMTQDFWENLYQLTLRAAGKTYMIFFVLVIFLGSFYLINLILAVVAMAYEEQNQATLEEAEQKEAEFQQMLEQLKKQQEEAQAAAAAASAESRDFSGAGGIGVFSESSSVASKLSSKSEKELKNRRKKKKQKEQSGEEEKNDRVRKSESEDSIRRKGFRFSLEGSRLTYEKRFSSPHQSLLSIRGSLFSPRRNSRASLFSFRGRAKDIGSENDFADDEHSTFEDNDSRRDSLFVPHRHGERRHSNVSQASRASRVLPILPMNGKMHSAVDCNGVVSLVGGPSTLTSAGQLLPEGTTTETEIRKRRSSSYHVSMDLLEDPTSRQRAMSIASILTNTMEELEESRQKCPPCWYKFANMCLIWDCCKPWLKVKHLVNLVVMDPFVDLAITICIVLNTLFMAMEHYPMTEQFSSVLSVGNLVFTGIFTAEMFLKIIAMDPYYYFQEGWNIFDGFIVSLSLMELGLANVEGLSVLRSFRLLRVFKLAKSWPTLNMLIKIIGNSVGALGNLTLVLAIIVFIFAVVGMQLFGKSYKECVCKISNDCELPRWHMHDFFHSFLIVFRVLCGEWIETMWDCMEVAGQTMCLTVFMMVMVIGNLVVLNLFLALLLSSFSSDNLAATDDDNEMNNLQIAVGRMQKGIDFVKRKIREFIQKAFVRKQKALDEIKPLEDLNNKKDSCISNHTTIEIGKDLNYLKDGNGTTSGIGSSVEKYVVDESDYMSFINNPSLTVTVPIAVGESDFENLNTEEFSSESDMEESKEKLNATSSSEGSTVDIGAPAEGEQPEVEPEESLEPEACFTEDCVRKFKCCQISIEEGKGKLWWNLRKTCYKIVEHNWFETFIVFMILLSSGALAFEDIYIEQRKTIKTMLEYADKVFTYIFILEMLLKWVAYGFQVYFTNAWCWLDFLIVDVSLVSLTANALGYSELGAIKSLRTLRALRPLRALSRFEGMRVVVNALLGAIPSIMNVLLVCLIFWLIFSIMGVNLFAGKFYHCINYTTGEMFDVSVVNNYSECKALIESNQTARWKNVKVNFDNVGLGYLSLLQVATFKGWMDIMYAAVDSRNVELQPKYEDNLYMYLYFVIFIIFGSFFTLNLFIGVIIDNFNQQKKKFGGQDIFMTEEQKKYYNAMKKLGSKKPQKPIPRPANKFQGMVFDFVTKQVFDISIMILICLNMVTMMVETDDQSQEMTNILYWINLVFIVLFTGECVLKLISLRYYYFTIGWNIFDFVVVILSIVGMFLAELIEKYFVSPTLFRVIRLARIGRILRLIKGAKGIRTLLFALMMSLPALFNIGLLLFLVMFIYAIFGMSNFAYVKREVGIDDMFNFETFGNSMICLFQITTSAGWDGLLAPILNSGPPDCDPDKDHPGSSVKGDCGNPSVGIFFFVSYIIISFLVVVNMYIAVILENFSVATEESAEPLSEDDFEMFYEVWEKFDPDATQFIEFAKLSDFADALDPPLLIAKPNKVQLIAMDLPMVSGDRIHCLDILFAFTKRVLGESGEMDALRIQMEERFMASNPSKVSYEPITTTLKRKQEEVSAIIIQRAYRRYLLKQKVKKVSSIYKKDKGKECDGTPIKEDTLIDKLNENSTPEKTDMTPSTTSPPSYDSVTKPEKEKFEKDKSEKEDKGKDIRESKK
# Sequence (Q9NY46 whole entry, looked up, other chains not shown): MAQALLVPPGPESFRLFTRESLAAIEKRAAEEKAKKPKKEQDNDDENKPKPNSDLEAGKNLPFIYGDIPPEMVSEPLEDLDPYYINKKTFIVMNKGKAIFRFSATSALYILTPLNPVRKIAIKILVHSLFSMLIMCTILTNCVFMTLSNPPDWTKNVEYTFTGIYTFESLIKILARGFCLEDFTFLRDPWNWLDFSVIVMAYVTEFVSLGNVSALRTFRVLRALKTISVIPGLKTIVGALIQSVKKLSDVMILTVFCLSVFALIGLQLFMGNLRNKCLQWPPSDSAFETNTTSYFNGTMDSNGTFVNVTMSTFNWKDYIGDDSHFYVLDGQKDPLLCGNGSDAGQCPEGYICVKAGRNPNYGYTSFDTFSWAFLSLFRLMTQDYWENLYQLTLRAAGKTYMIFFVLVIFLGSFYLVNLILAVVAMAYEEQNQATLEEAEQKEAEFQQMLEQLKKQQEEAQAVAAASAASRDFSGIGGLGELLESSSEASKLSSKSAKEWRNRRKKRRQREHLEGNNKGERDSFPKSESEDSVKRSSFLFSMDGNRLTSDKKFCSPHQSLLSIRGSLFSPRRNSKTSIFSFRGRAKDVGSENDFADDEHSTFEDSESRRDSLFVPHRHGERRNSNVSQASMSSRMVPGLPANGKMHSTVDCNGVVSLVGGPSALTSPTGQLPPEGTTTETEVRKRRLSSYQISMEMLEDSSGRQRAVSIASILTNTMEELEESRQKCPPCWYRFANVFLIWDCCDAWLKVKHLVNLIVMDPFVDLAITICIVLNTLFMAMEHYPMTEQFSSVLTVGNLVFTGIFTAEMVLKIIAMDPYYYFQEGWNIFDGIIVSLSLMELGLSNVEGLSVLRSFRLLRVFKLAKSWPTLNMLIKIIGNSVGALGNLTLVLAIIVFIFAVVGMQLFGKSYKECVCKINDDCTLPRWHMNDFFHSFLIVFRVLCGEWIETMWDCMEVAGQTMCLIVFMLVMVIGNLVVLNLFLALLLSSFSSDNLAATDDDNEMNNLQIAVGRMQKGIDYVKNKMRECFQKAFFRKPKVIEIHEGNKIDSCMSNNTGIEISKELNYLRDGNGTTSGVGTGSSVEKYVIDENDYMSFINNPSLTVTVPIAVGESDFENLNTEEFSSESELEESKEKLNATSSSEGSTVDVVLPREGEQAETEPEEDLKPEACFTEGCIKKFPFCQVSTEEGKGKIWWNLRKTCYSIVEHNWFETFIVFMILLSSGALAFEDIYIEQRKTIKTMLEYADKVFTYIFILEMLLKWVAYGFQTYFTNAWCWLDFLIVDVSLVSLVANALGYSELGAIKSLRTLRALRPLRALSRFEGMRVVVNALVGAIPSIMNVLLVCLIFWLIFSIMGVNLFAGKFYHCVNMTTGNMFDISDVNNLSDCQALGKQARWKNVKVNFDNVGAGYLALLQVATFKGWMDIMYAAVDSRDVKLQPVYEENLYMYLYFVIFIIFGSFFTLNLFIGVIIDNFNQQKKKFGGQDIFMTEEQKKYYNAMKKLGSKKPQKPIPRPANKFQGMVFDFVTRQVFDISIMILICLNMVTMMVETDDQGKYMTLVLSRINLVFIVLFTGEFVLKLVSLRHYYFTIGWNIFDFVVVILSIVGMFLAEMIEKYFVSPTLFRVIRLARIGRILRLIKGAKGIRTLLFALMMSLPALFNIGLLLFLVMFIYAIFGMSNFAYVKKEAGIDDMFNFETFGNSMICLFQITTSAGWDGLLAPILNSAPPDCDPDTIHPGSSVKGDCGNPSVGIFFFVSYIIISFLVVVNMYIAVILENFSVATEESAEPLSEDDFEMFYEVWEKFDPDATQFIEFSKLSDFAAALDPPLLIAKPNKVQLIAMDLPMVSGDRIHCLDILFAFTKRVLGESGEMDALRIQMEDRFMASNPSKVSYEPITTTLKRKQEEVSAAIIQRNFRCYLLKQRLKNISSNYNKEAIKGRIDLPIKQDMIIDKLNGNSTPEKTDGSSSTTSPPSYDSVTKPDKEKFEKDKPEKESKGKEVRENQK
# CONDITION INFO: Cavia porcellus; Cerebral cortex; at 10 µM
PROPERTY LABEL: inhibition (%)

COC(=O)[C@H]1[C@H]2C[C@H]3c4[nH]c5ccccc5c4CCN3C[C@H]2CC[C@@H]1O	13.1
O=C(CCCN1CCC(O)(c2ccc(Cl)cc2)CC1)c1ccc(F)cc1	85.5
CC[C@@H]1CN2CC[C@@H]1C[C@H]2[C@H](O)c1ccnc2ccc(OCCC(C)C)cc12	95.7
O=C(O)c1ccccc1Nc1cccc(C(F)(F)F)c1	26.7
CC(C)CNCCOC(=O)c1ccc(N)cc1	12.3
CN(C)CCC(c1ccc(Cl)cc1)c1ccccn1 (configuration not stated)	49.7
CNC1=Nc2ccc(Cl)cc2C(c2ccccc2)=[N+]([O-])C1	4.4
